# tested system: AMPA receptors
# measurement protocol: Radiobinding assay in rat brain synaptic membrane samples, [^3 H] AMPA (AMPA receptors)
# assay conditions: [^3 H] AMPA 5 nM; 100 mM KSCN/50 mM Tris-acetate pH 7.4; 4° C., 1 hour; read-out: IC50, inhibition of [^3 H] AMPA binding
Answer each item with its documented pIC50.
To interpret pIC50, take it as minus log10 of a concentration measured in moles per litre.

Input line: Return reported pIC50. Input molecule: CNC1C(O)COC2CC(CC(N)C(=O)O)(C(=O)O)OC21 (stereo not drawn)
Output line: 6.65

Input line: Return reported pIC50. Input molecule: N[C@@H](CCC(=O)O)C(=O)O [Glutamic acid, L-glutamic acid, reference compound]
Output line: 6.91

Input line: Return reported pIC50. Input molecule: Cc1onc(O)c1CC(N)C(=O)O (stereo not drawn)
Output line: 8.25

---

# tested system: KA receptors
# measurement protocol: Radiobinding assay in rat brain synaptic membrane samples, [^3 H] kainic acid (KA receptors)
# assay conditions: [^3 H] kainic acid 1 nM; 100 mM Tris-acetate pH 7.1; 4° C., 1 hour; read-out: IC50, inhibition of [^3 H] kainic acid binding
metric name: IC50
Kindly format the answer as number then unit.

Input line: Return reported IC50. Input compound: N[C@@H](CCC(=O)O)C(=O)O [Glutamic acid, L-glutamic acid, reference compound]
Output line: 110 nM

Input line: Return reported IC50. Input compound: "C=C(C)[C@H]1CN[C@H](C(=O)O)[C@H]1CC(=O)O"
Output line: 4.3 nM

Input line: Return reported IC50. Input compound: CNC1C(O)COC2CC(CC(N)C(=O)O)(C(=O)O)OC21 (stereo not drawn)
Output line: 59 nM
